Where do these numbers come from? They come from patent US20260151494A1.

Would you mind telling me the reported RLU of each entry?
# tested-on: T1, human CD71 extracellular domain (human, UniProt P02786 89-760)
# T1 construct: also called hCD71; CD71-ECD
# experiment-description: primary ELISA; further: test concentration or dose not given here
# number only, unit RLU dropped from output

# input binder: CD71-binding FN3 domain SEQ ID NO 399 (designed binder) MLPAPKNLVVSRVTEDSARLSWTAPDAAFDSFFIGYLEPQPPGEAITLYVPGSERSYDLTGLKPGTEYNVTIQGVKGGFPSTPLTATFTT ; wanted: its RLU
5.88e+06

Quick one: RLU for CD71-binding FN3 domain SEQ ID NO 429 (designed binder) MLPAPKNLVVSRVTEDSARLSWTAPDAAFDSFEIGYFERSFYGEAIILFVPGSERSYDLTGLKPGTEYAVWIGGVKGGVWSRPLSAIFTT ?
1.95e+06

Report RLU for CD71-binding FN3 domain SEQ ID NO 430 (designed binder) MLPAPKNLVVSRVTEDSARLSWTAPDAAFDSFFIGYLEPQPPGEAIDLWVPGSERSYDLTGLKPGTEYNVTIQGVKGGFPSYPLSASFTT please.
3.64e+06

Entry CD71-binding FN3 domain SEQ ID NO 372 (designed binder) MLPAPKNLVVSRVTEDSARLSWTAPDAAFDSFFIGYLEPQPPGEAINLLVPGSERSYDLTGLKPGTEYNVTIQGVKGGFPSLPLLAEFTT : reported RLU = ?
2.8e+06

// query RLU value for entry CD71-binding FN3 domain SEQ ID NO 427 (designed binder) MLPAPKNLVVSRVTEDSARLSWTAPDAAFDSFFIGYLEPQPPGEAIHLRVPGSERSYDLTGLKPGTEYNVTIQGVKGGFPSDPLIAVFTT
2.25e+06

Recorded RLU of CD71-binding FN3 domain SEQ ID NO 368 (designed binder) MLPAPKNLVVSRVTEDSARLSWTAPDAAFDSFFIGYLEPQPPGEAITLTVPGSERSYDLTGLKPGTEYNVTIQGVKGGFPSGPLIASFTT , please.
5.53e+06

Data request, read-out RLU, for CD71-binding FN3 domain SEQ ID NO 378 (designed binder) MLPAPKNLVVSRVTEDSARLSWTAPDAAFDSFFIGYLEPQPPGEAIDLWVPGSERSYDLTGLKPGTEYNVTIQGVKGGFPSTPLIATVTT
6.12e+06

Which measured RLU value corresponds to CD71-binding FN3 domain SEQ ID NO 349 (designed binder) MLPAPKNLVVSRVTEDSARLSWTAPDAAFDSFFIGYLEPQPPGEAIELYVPGSERSYDLTGLKPGTEYNVTIQGVKGGFPSEPLIAHFTT ?
6.37e+06

Fill in: RLU of CD71-binding FN3 domain SEQ ID NO 379 (designed binder) MLPAPKNLVVSRVTEDSARLSWTAPDAAFDSFYIEYWEGYRSGEAIVLTVPGSERSYDLTGLKPGTEYRVHIWGVKGGAVSYPLSAIFTT is ___
1.4e+06

Entry CD71-binding FN3 domain SEQ ID NO 388 (designed binder) MLPAPKNLVVSRVTEDSARLSWTAPDAAFDSFEIAYFEYCLNGEAIVLTVPGSERSYDLTGLKPGTEYWVQIGGVKGGTWSWPLSAIFTT has what RLU?
1.09e+06

Give its RLU value. Item: CD71-binding FN3 domain SEQ ID NO 359 (designed binder) MLPAPKNLVVSRVTEDSARLSWTAPDAAFDSFLIPYAETSPSGEAIVLTVPGSERSYDLTGLKPGTEYSVLIHGVKGGDYSSPLSAIFTT
3.57e+06

Field request: RLU | item: CD71-binding FN3 domain SEQ ID NO 394 (designed binder) MLPAPKNLVVSRVTEDSARLSWTAPDAAFDSFFIGYLEPQPPGEAIYLLVPGSERSYDLTGLKPGTEYNVTIQGVKGGFPSTPLEASFTT
2.86e+06

Which RLU value is on record for CD71-binding FN3 domain SEQ ID NO 387 (designed binder) MLPAPKNLVVSRVTEDSARLSWTAPDAAFDSFFIGYLEPQPPGEAIHLVVPGSERSYDLTGLKPGTEYNVTIQGVKGGFPSDPLYAWFTT ?
1.79e+06

Bench note: what RLU did CD71-binding FN3 domain SEQ ID NO 400 (designed binder) MLPAPKNLVVSRVTEDSARLSWTAPDAAFDSFFIGYLEPQPPGEAIHLFVPGSERSYDLTGLKPGTEYNVTIQGVKGGFPSGPLHATFTT show?
5.67e+06

Reported RLU, binder CD71-binding FN3 domain SEQ ID NO 353 (designed binder) MLPAPKNLVVSRVTEDSARLSWTAPDAAFDSFFIGYLEPQPPGEAIGLFVPGSERSYDLTGLKPGTEYNVTIQGVKGGFPSNPLEARFTT : ____
4.54e+06

Sample CD71-binding FN3 domain SEQ ID NO 440 (designed binder) MLPAPKNLVVSRVTEDSARLSWTAPDAAFDSFEIVYAEWTQHGEAIVLTVPGSERSYDLTGLKPGTEYYVHIGGVKGGKWSPPLYAIFTT — what was its RLU?
2.26e+06

Which measured RLU value corresponds to CD71-binding FN3 domain SEQ ID NO 362 (designed binder) MLPAPKNLVVSRVTEDSARLSWTAPDAAFDSFEIAYWENNFNGEAIILIVPGSERSYDLTGLKPGTEYVVFISGVKGGTWSYPLVAQFTT ?
2.24e+06

What RLU value was documented for this binder, CD71-binding FN3 domain SEQ ID NO 417 (designed binder) MLPAPKNLVVSRVTEDSARLSWTAPDAAFDSFFIGYLEPQPPGEAIQLFVPGSERSYDLTGLKPGTEYNVTIQGVKGGFPSDPLVASFTT ?
4.51e+06
